tested on: Alternaria solani; test: Test F: test suspension sprayed on tomato seedlings, inoculated next day with Alternaria solani (tomato early blight); visual disease rating (100 = 100% disease control, 0 = no control; dash = not tested); format: in vivo; conditions: 50 ppm
Assay readout: pest or weed control at 50 ppm (%)
// units = %; emit number, no label

These solved cases illustrate the format of a correct answer.
COc1ccc(Cl)c(-c2nn(C)c(=O)c(Cl)c2-c2c(F)cccc2F)c1 [Compound 57] ... 100
CCc1c(-c2c(F)cccc2F)c(-c2cc(OC)ccc2Cl)nn(C)c1=O [Compound 179] ... 100
COc1cc(OC)c(Br)c(-c2nn(C)c(=O)c(C)c2-c2ccc(F)cc2Cl)c1 [Compound 64] ... 100
COc1cc(OC)c(Cl)c(-c2nn(C)c(=O)c(Cl)c2-c2ccc(F)cc2Cl)c1 [Compound 58] ... 100

Short answer for COc1ccc(Cl)c(-c2nn(C)c(=O)c(Cl)c2-c2ccc(F)cc2Cl)c1 [Compound 83] : pest or weed control at 50 ppm was 100

Short answer for Cc1ccc(Cl)c(-c2nn(C)c(=O)c(C)c2-c2ccc(F)cc2Cl)c1 [Compound 136] : pest or weed control at 50 ppm was 40

Short answer for Cn1nc(-c2ccccc2)c(-c2ccc(F)cc2Cl)c(Cl)c1=O [Compound 141] : pest or weed control at 50 ppm was 99

Short answer for COc1cc(OC)c(Cl)c(-c2nn(C)c(=O)cc2-c2ccc(F)cc2Cl)c1 [Compound 25] : pest or weed control at 50 ppm was 85

// data source = patent US20230095836A1
